# subjectOfTest: Frizzled-2 (Homo sapiens, UniProt Q14332)
# Sequence (Q14332 24-565 limits assumed): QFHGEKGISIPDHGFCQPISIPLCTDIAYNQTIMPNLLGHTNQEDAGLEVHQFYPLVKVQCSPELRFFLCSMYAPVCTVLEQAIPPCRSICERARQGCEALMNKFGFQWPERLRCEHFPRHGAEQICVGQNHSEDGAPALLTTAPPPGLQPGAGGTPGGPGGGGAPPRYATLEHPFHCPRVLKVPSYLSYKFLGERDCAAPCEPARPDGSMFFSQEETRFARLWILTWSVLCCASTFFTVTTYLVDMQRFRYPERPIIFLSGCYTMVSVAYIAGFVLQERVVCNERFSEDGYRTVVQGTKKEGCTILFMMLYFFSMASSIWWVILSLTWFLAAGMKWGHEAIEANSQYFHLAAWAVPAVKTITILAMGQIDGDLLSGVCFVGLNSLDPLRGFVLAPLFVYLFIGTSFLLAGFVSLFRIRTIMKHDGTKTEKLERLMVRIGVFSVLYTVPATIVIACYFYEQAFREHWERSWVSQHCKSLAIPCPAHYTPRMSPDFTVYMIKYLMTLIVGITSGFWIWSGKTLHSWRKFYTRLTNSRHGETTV
# protocolNotes: Antagonist activity at Wnt3a-stimulated frizzled-2 (unknown origin) expressed in human HEK293superTOP flash cells at 10 nM incubated for 24 hrs by luciferase reporter gene assay
# Type: functional, cell-based
# details: HEK293
Calls of active or inactive are those of the source. No cut-off for these calls is given here. Residues, ends and D or L forms follow the SMILES beside them.

- molecule: "CSCC[C@H](NC(=O)CNC(=O)[C@H](CCC(=O)O)NC(=O)[C@H](CO)NC(=O)[C@@H](NC(=O)[C@H](CCCCN)NC(=O)[C@H](CC(N)=O)NC(=O)[C@H](CS)NC(C)=O)[C@@H](C)O)C(=O)N[C@@H](C)C(=O)NCC(=O)N[C@@H](CS)C(=O)N[C@@H](CCC(=O)O)C(=O)N[C@@H](CC(C)C)C(N)=O (Ac-CNKTSEGMAGCEL-NH2)"
  inhibition: "inactive"
- molecule: "CSCC[C@H](NC(=O)CNC(=O)[C@H](CCC(=O)O)NC(=O)[C@H](CO)NC(=O)[C@@H](NC(=O)[C@H](CCCCN)NC(=O)[C@H](CC(N)=O)NC(=O)[C@H](CS)NC(C)=O)[C@@H](C)O)C(=O)N[C@@H](CC(=O)O)C(=O)NCC(=O)N[C@@H](CS)C(=O)N[C@@H](C)C(=O)N[C@@H](CC(C)C)C(N)=O (Ac-CNKTSEGMDGCAL-NH2)"
  inhibition: "inactive"
- molecule: "CSCC[C@H](NC(=O)CNC(=O)[C@H](CCC(=O)O)NC(=O)[C@H](CO)NC(=O)[C@@H](NC(=O)[C@H](C)NC(=O)[C@H](CC(N)=O)NC(=O)[C@H](CS)NC(C)=O)[C@@H](C)O)C(=O)N[C@@H](CC(=O)O)C(=O)NCC(=O)N[C@@H](CS)C(=O)N[C@@H](CCC(=O)O)C(=O)N[C@@H](CC(C)C)C(N)=O (Ac-CNATSEGMDGCEL-NH2)"
  inhibition: "inactive"

###

# subjectOfTest: Frizzled-2 (Rattus norvegicus)
# protocolNotes: Antagonist activity at Wnt3a-stimulated rat frizzled-2 expressed in African green monkey COS7 cells up to 10 uM incubated for 24 hrs by luciferase reporter gene assay
# Format: cell-based
# details: dose microM <=10, time 24.0 hrs
Active and inactive are the calls of the source. No cut-off for these calls is given here. Residues, ends and D or L forms follow the SMILES beside them.
readoutKind: inhibition

- molecule: "CSCC[C@H](NC(=O)CNC(=O)[C@H](CCC(=O)O)NC(=O)[C@H](CO)NC(=O)[C@@H](NC(=O)[C@H](CCCCN)NC(=O)[C@H](CC(N)=O)NC(=O)[C@H](CS)NC(C)=O)[C@@H](C)O)C(=O)N[C@@H](CC(=O)O)C(=O)NCC(=O)N[C@@H](CS)C(=O)N[C@@H](C)C(=O)N[C@@H](CC(C)C)C(N)=O (Ac-CNKTSEGMDGCAL-NH2)"
  subjectOfTest: "Frizzled-2 (Rattus norvegicus)"
  readoutKind: "inhibition"
  reportedValue: "inactive"
- molecule: "CSCC[C@H](NC(=O)CNC(=O)[C@H](CCC(=O)O)NC(=O)[C@H](CO)NC(=O)[C@@H](NC(=O)[C@H](CCCCN)NC(=O)[C@H](CC(N)=O)NC(=O)[C@H](CS)NC(C)=O)[C@@H](C)O)C(=O)N[C@@H](CC(=O)O)C(=O)NCC(=O)N[C@@H](C)C(=O)N[C@@H](CCC(=O)O)C(=O)N[C@@H](CC(C)C)C(N)=O (Ac-CNKTSEGMDGAEL-NH2)"
  subjectOfTest: "Frizzled-2 (Rattus norvegicus)"
  readoutKind: "inhibition"
  reportedValue: "inactive"
